biological target: Human immunodeficiency virus type 1 reverse transcriptase (Human immunodeficiency virus 1); experiment: Inhibition against HIV-1 wild type reverse transcriptase […]
outcome_measure: inhibition (%)
Report as a plain number; the unit % is understood.

Solved cases (7 shown):
• CCN1c2ncccc2C(=O)N(C)c2ccc(-c3c[nH]c4ncccc34)nc21 = 76
• CCN1c2ncccc2C(=O)N(C)c2ccc(-c3c[nH]c4cnccc34)nc21 = 94
• CCN1c2ncccc2C(=O)N(C)c2ccc(-c3c[nH]c4cccnc34)nc21 = 21
• CCN1c2ncccc2C(=O)N(C)c2ccc(-c3cc[nH]c3)nc21 = 95
• CCN1c2ncccc2C(=O)N(C)c2ccc(-c3c[nH]c4ccc(F)cc34)nc21 = 63
• CCN1c2ncccc2C(=O)N(C)c2ccc(-c3c[nH]c4ccncc34)nc21 = 87
• CCN1c2ncccc2C(=O)N(C)c2ccc(-c3c[nH]c4ccccc34)nc21 = 96

Qu. GET /values?readout=inhibition&item= CCN1c2ncccc2C(=O)N(C)c2ccc(-c3c[nH]c4ccc(OC)cc34)nc21
Ans. 61

----------
tested on: Human immunodeficiency virus type 1 reverse transcriptase (Human immunodeficiency virus 1), Q72547 [Y181C]; experiment: Inhibition against HIV-1 mutant Y181C reverse transcriptase at 1 mM
Catalogue of inhibition values

- CCN1c2ncccc2C(=O)N(C)c2ccc(-c3c[nH]c4ccc(F)cc34)nc21: 59%

Here's the next entry for you.
Qu. GET /values?readout=inhibition&item= CCN1c2ncccc2C(=O)N(C)c2ccc(-c3c[nH]c4cnccc34)nc21
Ans. 81%

----------
target: Human immunodeficiency virus type 1 reverse transcriptase (Human immunodeficiency virus 1, UniProt Q72547, V106A); test: Inhibition against HIV-1 mutant V106A reverse transcriptase […]
Catalogue of pIC50 values
Quick note: pIC50 means taking -log10 of the concentration in moles per liter.

- CCN1c2ncccc2C(=O)N(C)c2ccc(-c3c[nH]c4cnccc34)nc21: 6.64
- CCN1c2ncccc2C(=O)N(C)c2ccc(-c3cc[nH]c3)nc21: 6.00

Qu. GET /values?readout=pIC50&item= CCN1c2ncccc2C(=O)N(C)c2ccc(-c3c[nH]c4ccccc34)nc21
Ans. 7.31

Qu. GET /values?readout=pIC50&item= CCN1c2ncccc2C(=O)N(C)c2ccc(-c3c[nH]c4ccc(OC)cc34)nc21
Ans. 5.51

----------
Catalogue of pIC50 values
target: Human immunodeficiency virus type 1 reverse transcriptase (Human immunodeficiency virus 1, UniProt Q72547, Y188L); experiment: Inhibitory concentration against HIV-1 mutant Y188L reverse transcriptase
Quick note: pIC50 means taking -log10 of the concentration in moles per liter.

• CCN1c2ncccc2C(=O)N(C)c2ccc(-c3cc[nH]c3)nc21 = 7.00
• CCN1c2ncccc2C(=O)N(C)c2ccc(-c3c[nH]c4ccc(OC)cc34)nc21 = 6.14
• CCN1c2ncccc2C(=O)N(C)c2ccc(-c3c[nH]c4ccccc34)nc21 = 7.05

Qu. GET /values?readout=pIC50&item= CCN1c2ncccc2C(=O)N(C)c2ccc(-c3c[nH]c4cnccc34)nc21
Ans. 6.42

Qu. GET /values?readout=pIC50&item= CCN1c2ncccc2C(=O)N(C)c2ccc(-c3c[nH]c4ncccc34)nc21
Ans. 5.89

----------
target: Human immunodeficiency virus type 1 reverse transcriptase (Human immunodeficiency virus 1, UniProt Q72547, G190A); test: Inhibition against HIV-1 mutant G190A reverse transcriptase […]
outcome_measure: IC50 (nM)
Report as a plain number; the unit nM is understood.

Solved cases (2 shown):
• CCN1c2ncccc2C(=O)N(C)c2ccc(-c3cc[nH]c3)nc21 = 320
• CCN1c2ncccc2C(=O)N(C)c2ccc(-c3c[nH]c4ccccc34)nc21 = 12

Qu. GET /values?readout=IC50&item= CCN1c2ncccc2C(=O)N(C)c2ccc(-c3c[nH]c4ccc(OC)cc34)nc21
Ans. 600

Qu. GET /values?readout=IC50&item= CCN1c2ncccc2C(=O)N(C)c2ccc(-c3c[nH]c4cnccc34)nc21
Ans. 19

----------
target: Human immunodeficiency virus type 1 reverse transcriptase (Human immunodeficiency virus 1, UniProt Q72547, Y181C); assay: Inhibitory concentration against HIV-1 mutant Y181C reverse transcriptase
Catalogue of log10 IC50 values
A difference of one corresponds to tenfold IC50; all values are log10 with IC50 in nM.

Solved cases (5 shown):
- CCN1c2ncccc2C(=O)N(C)c2ccc(-c3c[nH]c4ccccc34)nc21: 1.45
- CCN1c2ncccc2C(=O)N(C)c2ccc(-c3c[nH]c4ccncc34)nc21: 2.35
- CCN1c2ncccc2C(=O)N(C)c2ccc(-c3c[nH]c4cnccc34)nc21: 1.99
- CCN1c2ncccc2C(=O)N(C)c2ccc(-c3cc[nH]c3)nc21: 1.70
- CCN1c2ncccc2C(=O)N(C)c2ccc(-c3c[nH]c4ccc(F)cc34)nc21: 2.74

Qu. GET /values?readout=log10 IC50&item= CCN1c2ncccc2C(=O)N(C)c2ccc(-c3c[nH]c4ncccc34)nc21
Ans. 2.30

Qu. GET /values?readout=log10 IC50&item= CCN1c2ncccc2C(=O)N(C)c2ccc(-c3c[nH]c4ccc(OC)cc34)nc21
Ans. 2.36

----------
Catalogue of pIC50 values
target: Human immunodeficiency virus type 1 reverse transcriptase (Human immunodeficiency virus 1, UniProt Q72547)
Quick note: pIC50 means taking -log10 of the concentration in moles per liter.

Qu. GET /values?readout=pIC50&item= CCN1c2ncccc2C(=O)N(C)c2ccc(-c3c[nH]c4ncccc34)nc21
Ans. 6.68

Qu. GET /values?readout=pIC50&item= CCN1c2ncccc2C(=O)N(C)c2ccc(-c3cc[nH]c3)nc21
Ans. 7.48

Qu. GET /values?readout=pIC50&item= CCN1c2ncccc2C(=O)N(C)c2ccc(-c3c[nH]c4cnccc34)nc21
Ans. 7.36

Qu. GET /values?readout=pIC50&item= CCN1c2ncccc2C(=O)N(C)c2ccc(-c3c[nH]c4ccccc34)nc21
Ans. 7.55

Qu. GET /values?readout=pIC50&item= CCN1c2ncccc2C(=O)N(C)c2ccc(-c3c[nH]c4ccncc34)nc21
Ans. 6.89

Qu. GET /values?readout=pIC50&item= CCN1c2ncccc2C(=O)N(C)c2ccc(-c3c[nH]c4ccc(F)cc34)nc21
Ans. 6.15

Qu. GET /values?readout=pIC50&item= CCN1c2ncccc2C(=O)N(C)c2ccc(-c3c[nH]c4ccc(OC)cc34)nc21
Ans. 6.70

----------
system: Human immunodeficiency virus type 1 reverse transcriptase (Human immunodeficiency virus 1), Q72547 [[…]]; experiment: Inhibition against HIV-1 mutant Y188L reverse transcriptase at 1 mM
Use Y when the recorded inhibition is no lower than 60%; use N when it is lower.

Recorded results for 3 compounds are shown here.
- CCN1c2ncccc2C(=O)N(C)c2ccc(-c3c[nH]c4cccnc34)nc21: N
- CCN1c2ncccc2C(=O)N(C)c2ccc(-c3c[nH]c4ccccc34)nc21: Y
- CCN1c2ncccc2C(=O)N(C)c2ccc(-c3c[nH]c4ccc(OC)cc34)nc21: N

Qu. Confirm if inhibition reported for the compound CCN1c2ncccc2C(=O)N(C)c2ccc(-c3cc[nH]c3)nc21 is 60% or above.
Ans. Y

Qu. Confirm if inhibition reported for the compound CCN1c2ncccc2C(=O)N(C)c2ccc(-c3c[nH]c4ncccc34)nc21 is 60% or above.
Ans. N

Qu. Confirm if inhibition reported for the compound CCN1c2ncccc2C(=O)N(C)c2ccc(-c3c[nH]c4ccc(F)cc34)nc21 is 60% or above.
Ans. N

Qu. Confirm if inhibition reported for the compound CCN1c2ncccc2C(=O)N(C)c2ccc(-c3c[nH]c4cnccc34)nc21 is 60% or above.
Ans. Y

Qu. Confirm if inhibition reported for the compound CCN1c2ncccc2C(=O)N(C)c2ccc(-c3c[nH]c4ccncc34)nc21 is 60% or above.
Ans. N

----------
Catalogue of IC50 values
target: Human immunodeficiency virus type 1 reverse transcriptase (Human immunodeficiency virus 1, UniProt Q72547, K103N); experiment: Inhibition against HIV-1 mutant K103N reverse transcriptase […]
Report as a plain number; the unit nM is understood.

- CCN1c2ncccc2C(=O)N(C)c2ccc(-c3c[nH]c4ccc(OC)cc34)nc21: 935
- CCN1c2ncccc2C(=O)N(C)c2ccc(-c3c[nH]c4ccccc34)nc21: 97

Qu. GET /values?readout=IC50&item= CCN1c2ncccc2C(=O)N(C)c2ccc(-c3c[nH]c4cnccc34)nc21
Ans. 32

----------
system: Human immunodeficiency virus type 1 reverse transcriptase (Human immunodeficiency virus 1), Q72547 [Y181C]; assay: Inhibition against HIV-1 mutant Y181C reverse transcriptase at 1 mM
Catalogue of inhibition values
Report as a plain number; the unit % is understood.

• CCN1c2ncccc2C(=O)N(C)c2ccc(-c3c[nH]c4cccnc34)nc21 = 18
• CCN1c2ncccc2C(=O)N(C)c2ccc(-c3c[nH]c4ccccc34)nc21 = 93
• CCN1c2ncccc2C(=O)N(C)c2ccc(-c3c[nH]c4ccc(OC)cc34)nc21 = 45
• CCN1c2ncccc2C(=O)N(C)c2ccc(-c3cc[nH]c3)nc21 = 91
• CCN1c2ncccc2C(=O)N(C)c2ccc(-c3c[nH]c4ncccc34)nc21 = 70

Qu. GET /values?readout=inhibition&item= CCN1c2ncccc2C(=O)N(C)c2ccc(-c3c[nH]c4ccncc34)nc21
Ans. 66
